- assayRemarks: Air/water partition coefficient via hexadecane/air/water thermodynamic cycle (eq 1)
- Type: physicochemical
- conditionLabel: 25 °C; KHxd/w divided by KHxd/air
assayEndpoint: log Kaw eq 1

Please review the following examples before continuing.
- compound: "CNS(=O)(=O)C(F)(F)C(F)(F)C(F)(F)C(F)(F)F [MeFBSA, N-methyl perfluorobutane sulfonamide]"
  result: "–2.85"
- compound: "NS(=O)(=O)C(F)(F)C(F)(F)C(F)(F)C(F)(F)C(F)(F)C(F)(F)C(F)(F)C(F)(F)F [PFOSA, perfluorooctane sulfonamide]"
  result: "–3.04"
- compound: "CCN(CCO)S(=O)(=O)C(F)(F)C(F)(F)C(F)(F)C(F)(F)C(F)(F)C(F)(F)F [EtFHxSE]"
  result: "–3.02"
- compound: "OCCCCC(F)(F)C(F)(F)C(F)(F)C(F)(F)F [4:4 FTOH, 4-(perfluorobutyl)butan-1-ol]"
  result: "–1.97"
- compound: "FC(F)(F)C(F)(F)C(F)(F)C(F)(F)C(F)(F)C(F)(F)CI [6:1 FTI, 1H,1H-perfluoroheptyl iodide]"
  result: 2.28
- compound: "CC(O)C(F)(F)C(F)(F)C(F)(F)C(F)(F)C(F)(F)F (centres unmarked) [5:2s FTOH, 1H,1H,1H,2H-perfluoroheptan-2-ol]"
  result: "–0.15"

# query: log Kaw eq 1 of entry OCCC(F)(F)C(F)(F)C(F)(F)C(F)(F)C(F)(F)C(F)(F)F [6:2 FTOH, 1H,1H,2H,2H-perfluorooctan-1-ol]
–0.64

# query: log Kaw eq 1 of entry C=CC(=O)OCCC(F)(F)C(F)(F)C(F)(F)C(F)(F)C(F)(F)C(F)(F)F [6:2 FTAC, 1H,1H,2H,2H-perfluorooctyl acrylate]
1.27

# query: log Kaw eq 1 of entry OCCCC(F)(F)C(F)(F)C(F)(F)F [3:3 FTOH, 3-(perfluoropropyl)propan-1-ol]
–2.17

====

// reported log KHxd/w batch partition method mean per item
- assayRemarks: Hexadecane/water partition coefficient, batch partition method
- Assay type: physicochemical
- conditionLabel: 1 mM HCl was used instead of pure water, 25 °C, n = 5
Marks after values point to notes of the source that are not given here.

- molecule: "CNS(=O)(=O)C(F)(F)C(F)(F)C(F)(F)C(F)(F)F [MeFBSA, N-methyl perfluorobutane sulfonamide]"
  log KHxd/w batch partition method mean: "0.82 ^c"

Read the next record carefully.
# query: log KHxd/w batch partition method mean of entry NS(=O)(=O)C(F)(F)C(F)(F)C(F)(F)C(F)(F)C(F)(F)C(F)(F)C(F)(F)C(F)(F)F [PFOSA, perfluorooctane sulfonamide]
1.80 ^c

====

- assayRemarks: Hexadecane/water partition coefficient, batch partition method
- Type: physicochemical
- conditionLabel: 1 mM HCl was used instead of pure water, 25 °C, n = 5
Marks after values point to notes of the source that are not given here.
// reported log KHxd/w batch partition method mean per item

- compound: "CNS(=O)(=O)C(F)(F)C(F)(F)C(F)(F)C(F)(F)C(F)(F)C(F)(F)F [MeFHxSA, N-methyl perfluorohexane sulfonamide]"
  log KHxd/w batch partition method mean: "2.25 ^c"
- compound: "CCNS(=O)(=O)C(F)(F)C(F)(F)C(F)(F)C(F)(F)C(F)(F)C(F)(F)F [EtFHxSA, N-ethyl perfluorohexane sulfonamide]"
  log KHxd/w batch partition method mean: "2.95 ^c"

Read the next record carefully.
# query: log KHxd/w batch partition method mean of entry NS(=O)(=O)C(F)(F)C(F)(F)C(F)(F)C(F)(F)C(F)(F)C(F)(F)F [PFHxSA, perfluorohexane sulfonamide]
0.39 ^c

The reported measurements were obtained from paper PMC10249623.
